TARGET OF ASSAY: recombinant BACE1 protein (Homo sapiens, UniProt P56817)
Construct: recombinant BACE1 protein in a final concentration of 0.04 μg/mL
Sequence (P56817 46-501): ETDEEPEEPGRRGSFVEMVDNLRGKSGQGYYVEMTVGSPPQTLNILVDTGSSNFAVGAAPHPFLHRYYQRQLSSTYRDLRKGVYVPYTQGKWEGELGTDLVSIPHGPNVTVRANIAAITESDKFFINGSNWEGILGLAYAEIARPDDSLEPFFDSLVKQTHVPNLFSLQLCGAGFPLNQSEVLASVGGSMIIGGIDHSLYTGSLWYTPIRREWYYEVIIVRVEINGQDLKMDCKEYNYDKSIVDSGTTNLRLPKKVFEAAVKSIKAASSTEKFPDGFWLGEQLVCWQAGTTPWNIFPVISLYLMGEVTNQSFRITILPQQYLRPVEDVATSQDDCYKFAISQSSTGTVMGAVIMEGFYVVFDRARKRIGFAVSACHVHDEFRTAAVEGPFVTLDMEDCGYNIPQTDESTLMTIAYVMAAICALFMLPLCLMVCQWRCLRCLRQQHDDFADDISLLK
ASSAY PROCEDURE: BACE1 biochemical FRET based assay
CONDITIONS USED: FRET, pH 5.0, 450 min at room temperature
Text: This assay is a Fluorescence Resonance Energy Transfer Assay (FRET) based assay. The substrate for this assay is an APP derived 13 amino acids peptide that contains the ‘Swedish’ Lys-Met/Asn-Leu mutation of the amyloid precursor protein (APP) beta-site secretase cleavage site. […] Upon cleavage by BACE1, the fluorophore Mca is separated from the quenching group Dnp, restoring the full fluorescence yield of the donor. The increase in fluorescence is linearly related to the rate of proteolysis. […]
READOUT KIND: pIC50
The value called pIC50 is obtained by taking minus log10 of the concentration in mol/L.

So what pIC50 did `NC1=N[C@](CF)(c2cc(NC(=O)c3cnc(OCF)cn3)ccc2F)[C@@H]2COCC[C@H]2O1` get with recombinant BACE1 protein (Homo sapiens, UniProt P56817)? 8.12

# repeat for `C[C@]1(c2cc(NC(=O)c3cnc(OCF)cn3)ccc2F)N=C(N)O[C@@H]2CO[C@@H](CC(F)F)[C@@H]21` 8.39

# repeat for `Cc1noc(C)c1[C@@H]1OC[C@H]2OC(N)=N[C@](C)(c3cc(NC(=O)c4cnc(OCF)cn4)ccc3F)[C@H]21` 7.92
